Target: recombinant rat PIM-3 (Rattus norvegicus)
Test: PIM-3 Assay (as Example A)
Details: averaged IC50; 30 μM ATP, 3.75 μM PIM2tide, 0.5 nM PIM-3
Where a name gives a salt, the structure may show the parent alone.
Measured parameter: IC50 (nM)

Compound	Quantitative readout
CCOc1cc2nc(-c3nnc4ccc([C@H](N5CC[C@H](N)C5)C(F)(F)F)cn34)ccc2cc1F [Example 249, dihydrochloride]	0.8
CCOc1ccc2ccc(-c3nnc4ccc([C@@H](N5CC[C@H](N)C5)C(F)(F)F)cn34)nc2c1 [Example 255, dihydrochloride]	0.6
N[C@H]1CCN([C@H](c2ccc3nnc(-c4ccc5cccc(Cl)c5n4)n3c2)C(F)(F)F)C1 [Example 182, dihydrochloride]	4.1
N[C@H]1CCN([C@H](c2ccc3nnc(-c4ccc5cc(F)c(OCCO)cc5n4)n3c2)C(F)(F)F)C1 [Example 123, hydrochloride]	0.4
COc1cc2nc(-c3nnc4ccc([C@@H](N5CC[C@H](N)C5)C(F)(F)F)cn34)ccc2cc1C [Example 138, hydrochloride]	9.5
COc1cccc2ccc(-c3nnc4ccc([C@@H](N5CC[C@H](NCCF)C5)C(F)(F)F)cn34)nc12 [Example 80, dihydrochloride]	32
CO[C@@H](C)COc1cc2nc(-c3nnc4ccc([C@H](N5CC[C@](C)(N)C5)C(F)(F)F)cn34)ccc2cc1F [Example 322, di-hydrochloride]	0.1
COC[C@H](C)Oc1ccc2ccc(-c3nnc4ccc([C@@H](N5CC[C@H](N)C5)C(F)(F)F)cn34)nc2c1 [Example 150, dihydrochloride]	3.5
COCC(C)Oc1cccc2ccc(-c3nnc4ccc([C@@H](N5CC[C@H](N)C5)C(F)(F)F)cn34)nc12 (stereo partly drawn) [Example 118, hydrochloride]	0.8
CN[C@H]1CCN([C@H](c2ccc3nnc(-c4ccc5cccc(OC(C)C)c5n4)n3c2)C(F)(F)F)C1 [Example 36, dihydrochloride]	2
CC(C)Oc1cccc2ccc(-c3nnc4ccc([C@@H](N5CC[C@H](NCCO)C5)C(F)(F)F)cn34)nc12 [Example 101, dihydrochloride]	0.8
N[C@H]1CCN([C@H](c2ccc3nnc(-c4ccc5cc(F)c(C6(CO)CC6)cc5n4)n3c2)C(F)(F)F)C1 [Example 164, dihydrochloride]	7.3
N[C@H]1CCN([C@H](c2ccc3nnc(-c4ccc5cc(F)cc(OCC(F)(F)F)c5n4)n3c2)C(F)(F)F)C1 [Example 232, dihydrochloride]	0.8
COCCOc1ccc2ccc(-c3nnc4ccc([C@@H](N5CC[C@H](N)C5)C(F)(F)F)cn34)nc2c1 [Example 148, dihydrochloride]	1.2
N[C@H]1CCN([C@H](c2ccc3nnc(-c4ccc5cc(F)cc(OCCO)c5n4)n3c2)C(F)(F)F)C1 [Example 254, dihydrochloride]	0.9
COCCCOc1ccc2ccc(-c3nnc4ccc([C@@H](N5CC[C@H](N)C5)C(F)(F)F)cn34)nc2c1 [Example 275, dihydrochloride]	0.7
FC(F)(F)[C@H](c1ccc2nnc(-c3ccc4cccc(OCC5CC5)c4n3)n2c1)N1C[C@@H]2C[C@H]1CN2 [Example 76, dihydrochloride]	3.6
CC(C)Oc1ccc2ccc(-c3nnc4ccc([C@@H](N5CC[C@H](N)C5)C(F)(F)F)cn34)nc2c1 [Example 142, dihydrochloride]	0.5
COc1cc2nc(-c3nnc4ccc([C@H](N5CC[C@H](N)C5)C(F)(F)F)cn34)ccc2cc1F [Example 136, hydrochloride]	5
COc1cc2nc(-c3nnc4ccc([C@@H](N5CC(F)[C@H](N)C5)C(F)(F)F)cn34)ccc2cc1F (stereo partly drawn) [Example 162, dihydrochloride]	35
COC[C@@H](C)Oc1ccc2ccc(-c3nnc4ccc([C@@H](N5CC[C@H](N)C5)C(F)(F)F)cn34)nc2c1F [Example 180, dihydrochloride]	13
Cn1cc(-c2ccc3ccc(-c4nnc5ccc([C@H](N6CCC(C)(O)C6)C(F)(F)F)cn45)nc3c2)cn1 (single isomer, unassigned; diastereomer 2) [Example 201, hydrochloride]	42
C[C@]1(N)CCN([C@@H](c2ccc3nnc(-c4ccc5cccc(C6CC6)c5n4)n3c2)C(F)(F)F)C1 [Example 96, dihydrochloride]	0.5
COc1cccc2ccc(-c3nnc4ccc(C(N5CC[C@H](O)C5)C(F)(F)F)cn34)nc12 (stereo partly drawn)	45
